System: SF-268
Test: NCI tumour cell line growth inhibition, 48 h
Activity calls are given as the source filed them. Cut-off read from the data, not from the text of the source: active = GI50 up to about 1.1 µM and inactive = higher.
GI50: recorded values
PROPERTY MEASURED: GI50

# COMPOUND, PROPERTY MEASURED, OBSERVED
records = [
    ("COc1cc(O)c2c(c1)C(=O)C=C(Cl)C2=O", "GI50", "> 100 µM (inactive)"),
    ("Cc1cc(C)c2ccc(N3CCNCC3)nc2n1", "GI50", "> 100 µM (inactive)"),
    ("CC(=O)OCC(OC(C)=O)C(OC(C)=O)C(OC(C)=O)C(=O)CNn1c(-c2ccccc2Cl)nc2ccc(Br)cc2c1=O (stereo not given)", "GI50", "> 100 µM (inactive)"),
    ("O=[N+]([O-])C(=C(c1ccccc1)c1ccccc1)[N+](=O)[O-]", "GI50", "4.57 µM (inactive)"),
    ("NC1=C(N2CCOCC2)C(=O)NC2=N/C(=C\\c3ccccc3)C(=O)N21", "GI50", "> 100 µM (inactive)"),
    ("Cc1ncc(C/N=C/c2ccc(Cl)cc2)c(N)n1", "GI50", "> 100 µM (inactive)"),
    ("CN(C)CCCN1c2ccc([N+](=O)[O-])cc2CCc2cc([N+](=O)[O-])ccc21", "GI50", "15.4 µM (inactive)"),
    ("Cc1ccc(/N=N\\c2c(O)c(S(=O)(=O)O)cc3cc(S(=O)(=O)O)ccc23)c(C)c1", "GI50", "> 100 µM (inactive)"),
    ("COc1nc2ccc(CNc3ccc(C(=O)NC(CCC(=O)O)C(=O)O)cc3)cc2nc1OC (stereo not given)", "GI50", "> 100 µM (inactive)"),
    ("O=c1cccccc1NCCCCNc1cccccc1=O", "GI50", "41.4 µM (inactive)"),
]

====

Test system: HL-60
Assay: NCI tumour cell line growth inhibition, 48 h
Active and inactive are the calls of the source. No stated cut-off is given here; in the data, active = GI50 up to about 1.1 µM and inactive = higher.
Outcome codes: active, inactive

# COMPOUND, LABEL CLASS
rows = [
    ("CC1=NN=C(N)N/C1=C\\C(Sc1ccc(Cl)cc1)c1ccc([N+](=O)[O-])cc1 (stereo not drawn)", "inactive"),
    ("CC(=O)C1(O)CCC2(O)C3(O)CC=C4CC(O)CCC4(C)C3CC(OC(=O)c3ccc(O)cc3)C12C.COC1CC(OC2C(C)OC(OC3C(C)OC(OC4CCC5(C)C(=CCC6(O)C5CC(OC(=O)c5ccc(O)cc5)C5(C)C(O)(C(C)=O)CCC65O)C4)CC3OC)CC2OC)OC(C)C1O (stereo not drawn)", "inactive"),
    ("O=C1OC2(OC2c2ccc(Cl)cc2)c2ccccc21 (stereo not drawn)", "inactive"),
    ("C=CCNC(=S)N/C=C(\\C#N)C(N)=O", "inactive"),
    ("Cc1nc2ccccc2[nH]/c1=N/Nc1ccccc1", "inactive"),
    ("C=CCN1CCC23c4c5ccc(O)c4OC2C(=NN=C2CCC4(O)C6Cc7ccc(O)c8c7C4(CCN6CC=C)C2O8)CCC3(O)C1C5 (stereo not drawn)", "inactive"),
    ("CCOC(=O)CNC(=O)C(CSC(=O)N(O)c1ccc(Br)cc1)NC(=O)CCC(N)C(=O)OCC (stereo not drawn)", "active"),
    ("CN(C)c1[se]nc2c1c(=O)n(C)c(=O)n2C", "inactive"),
]
